System: Stereotypien
Assay: Induction of stereotypies in rats (Methode 3)
Format: in vivo
Settings: Methode 3, rat, p.o.; dose up to which no stereotypies were seen
keine Stereotypien bis for assorted compounds

# count of solved cases: 3
Asked: Short answer please: keine Stereotypien bis, Stereotypien, entry OC(C(c1cccc(Cl)c1)n1ccnc1)C12CC3CC(CC(C3)C1)C2 (stereo not shown)
Given back: > 30 mg/kg

Asked: Please give the result for CC(C)(C)C(O)C(c1ccc(-c2ccccc2)cc1)n1ccnc1 (stereo not shown) too.
Given back: > 30 mg/kg

Asked: Check Cc1cccc(C(n2ccnc2)C2(O)C3CC4CC(C3)CC2C4)c1 (stereo not shown) [drawing 18] too.
Given back: > 30 mg/kg

---
Asked: Query the reported keine Stereotypien bis for Stereotypien; item: OC1(C(c2cccc(Cl)c2)n2ccnc2)C2CC3CC(C2)CC1C3 (stereo not shown)
Given back: > 300 mg/kg

Asked: Can you check OC1(C(c2cccc(Cl)c2)n2ccnc2)C2CC3CC(C2)CC1C3 (single isomer, unassigned) next?
Given back: > 30 mg/kg
